molecular target: hSERT (5-HTT) in HEK293-hSERT cells (Homo sapiens); test: 5-HTT reuptake activity assay (fluorescence neurotransmitter transporter uptake kit); details: serotonin reuptake inhibition
pIC50: −log10 of the molar value. Where a name gives a salt, the structure may show the parent alone.
For each record, write down the corresponding pIC50.

Input line: Could you share which pIC50 value was measured for CN1CC2C=C(c3cc4ccccc4o3)CC2C1 (stereo not shown) [Example 59, hydrochloride] ?
Output line: > 7.30

Input line: Consider the compound O=C(O)/C=C\C(=O)O.c1cc2ccc(N3CC4CNCC4C3)cc2s1 (stereo not shown) [Example 19, maleate] and give its measured pIC50.
Output line: > 8.00

Input line: Looking for the measured pIC50 of C1=C(c2cc3ccccc3o2)CC2CNCC12 (stereo not shown) [Example 52, hydrochloride] , can you help?
Output line: > 6.70

Input line: Report pIC50 for c1cc(N2CC3CCNCCC3C2)c2sccc2c1 (stereo not shown) [Example 43, maleate] please.
Output line: > 7.30

Input line: Data request, read-out pIC50, for CN1CC2CN(c3cccc4ccccc34)CC2C1 (stereo not shown) [Example 26, oxalate]
Output line: > 6.70

Input line: I have this compound here, c1ccc2cc(N3CC4CNCC4C3)ccc2c1 (stereo not shown) , and I need its recorded pIC50.
Output line: > 8.00

Input line: // pIC50 lookup, key: C1=C(c2ccc3ccccc3c2)CC2CNCC12 (stereo not shown) [Example 54, hydrochloride]
Output line: > 7.30

Input line: Given O=C(O)/C=C\C(=O)O.c1cc(N2CC3CCNCCC3C2)c2ccsc2c1 (stereo not shown) [Example 41, maleate] , state its recorded pIC50.
Output line: > 8.00

Input line: Returns the measured pIC50 for the input compound. Input: c1ccc2c(C3CC4CNCC4C3)cccc2c1 (stereo not shown) [Example 8, hydrochloride]
Output line: > 6.70

Input line: Field request: pIC50 | item: O=C(O)/C=C\C(=O)O.c1cc(N2CCC3CNCC3CC2)c2sccc2c1 (stereo not shown) [Example 36, maleate]
Output line: > 8.00

Input line: Any idea what its pIC50 is? The compound is c1cc2cc(N3CCC4CNCC4CC3)ccc2s1 (stereo not shown) [Example 7, maleate]
Output line: > 8.00

Input line: Can you share its pIC50? I mean this compound: O=C(O)/C=C\C(=O)O.c1cc(N2CC3CNCC3C2)c2sccc2c1 (stereo not shown) [Example 10, maleate]
Output line: > 7.30

Input line: Requested read-out: pIC50. Entry: Cc1cccc(N2CC3CNCC3C2)c1C (stereo not shown) [Example 66, maleate]
Output line: > 7.30

Input line: Name the recorded pIC50 for C1=C(c2cc3ccccc3s2)CC2CNCC12 (stereo not shown) [Example 51, hydrochloride] .
Output line: > 7.30

Input line: For O=C(O)/C=C\C(=O)O.c1cc(N2CC3CNCC3C2)c2ccsc2c1 (stereo not shown) [Example 12, maleate] , what is its reported pIC50?
Output line: > 7.30

Input line: Endpoint output: pIC50 of CN1CC2CN(c3c(F)cc4ccccc4c3F)CC2C1 (stereo not shown) [Example 75, dihydrochloride] . Value?
Output line: > 7.00

Input line: Which pIC50 value belongs to Fc1ccc2cc(N3CC4CNCC4C3)ccc2c1.O=C(O)/C=C\C(=O)O (stereo not shown) [Example 29, maleate] ?
Output line: > 8.00

Input line: # query: pIC50 of entry Clc1ccc(C2=CC3CNCC3C2)cc1Cl (stereo not shown) [Example 9, hydrochloride]
Output line: > 6.70

Input line: Field request: pIC50 | item: CN1CC2CN(c3ccc(Cl)c(Cl)c3)CC2C1 (stereo not shown)
Output line: > 8.00

====

target: hSERT (5-HTT) in HEK293-hSERT cells (Homo sapiens, UniProt P31645); test: 5-HTT reuptake activity assay (fluorescence neurotransmitter transporter uptake kit); settings: serotonin reuptake inhibition
Sequence (P31645 whole entry): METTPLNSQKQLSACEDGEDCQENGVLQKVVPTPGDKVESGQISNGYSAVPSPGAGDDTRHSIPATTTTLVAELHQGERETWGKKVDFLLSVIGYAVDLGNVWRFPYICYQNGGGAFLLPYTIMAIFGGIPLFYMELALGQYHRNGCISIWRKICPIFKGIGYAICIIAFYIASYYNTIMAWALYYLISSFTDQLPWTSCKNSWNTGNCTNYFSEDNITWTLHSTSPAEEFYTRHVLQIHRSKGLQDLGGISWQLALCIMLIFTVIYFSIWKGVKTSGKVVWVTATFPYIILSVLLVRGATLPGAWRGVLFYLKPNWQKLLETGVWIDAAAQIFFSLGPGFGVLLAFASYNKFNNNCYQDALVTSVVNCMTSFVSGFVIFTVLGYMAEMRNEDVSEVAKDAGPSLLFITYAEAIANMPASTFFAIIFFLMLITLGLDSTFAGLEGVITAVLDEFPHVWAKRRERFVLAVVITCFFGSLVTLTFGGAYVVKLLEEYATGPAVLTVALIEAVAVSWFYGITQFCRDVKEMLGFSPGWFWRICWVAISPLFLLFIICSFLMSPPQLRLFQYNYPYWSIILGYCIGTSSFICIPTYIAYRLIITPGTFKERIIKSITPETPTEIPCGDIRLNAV
pIC50: −log10 of the molar value. Structures can show the parent of a compound that is named as a salt.
experimental_endpoint: pIC50

Input line: Tell me the measured pIC50 of CN1CC2CC(c3cc4ccccc4s3)CC2C1 (centres unmarked) [Example 62, hydrochloride] , please.
Output line: > 7.30

Input line: Quick one: pIC50 of Clc1ccc(N2CCC3CNCC3CC2)c(Cl)c1 (centres unmarked) [Example 90, hydrochloride] ?
Output line: > 7.30

Input line: Param item = C1=C(c2cccc3ccccc23)CC2CNCC12 (centres unmarked) [Example 56, dihydrochloride] ; retrieve measured pIC50.
Output line: > 7.30

Input line: Quick one: pIC50 of CN1CC2CN(c3ccc4ccccc4c3)CC2C1 (centres unmarked) ?
Output line: > 8.00

Input line: Suppose we examine the compound CN1CC2CN(c3cccc4ccsc34)CC2C1.O=C(O)C(=O)O (centres unmarked) [Example 11, oxalate] ; what pIC50 value has been reported?
Output line: > 7.30

====

target: human recombinant 5-HT3 receptor (Homo sapiens, UniProt P46098); construct: expressed in transfected cells; host or cells: HEK293 (membrane preparation); test: 5-HT3 receptor affinity assay (3H-BRL 43694 radioligand binding); conditions: 1 μM compound; 0.5 nM 3H-BRL 43694; HEK293 membranes; read-out: inhibition (%) at 1 μM
Sequence (P46098 24-478): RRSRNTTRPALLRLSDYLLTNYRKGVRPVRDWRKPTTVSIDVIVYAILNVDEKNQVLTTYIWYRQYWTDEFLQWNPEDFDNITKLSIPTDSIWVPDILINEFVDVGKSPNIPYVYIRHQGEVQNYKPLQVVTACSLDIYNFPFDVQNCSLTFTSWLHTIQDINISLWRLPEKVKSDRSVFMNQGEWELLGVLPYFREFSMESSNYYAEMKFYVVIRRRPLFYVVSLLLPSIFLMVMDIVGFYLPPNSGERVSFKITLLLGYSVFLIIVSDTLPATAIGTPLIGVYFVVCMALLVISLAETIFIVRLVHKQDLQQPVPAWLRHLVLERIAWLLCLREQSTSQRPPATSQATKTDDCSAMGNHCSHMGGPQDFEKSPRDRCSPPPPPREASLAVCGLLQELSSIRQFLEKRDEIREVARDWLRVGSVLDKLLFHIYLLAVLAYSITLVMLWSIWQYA
Where a name gives a salt, the structure may show the parent alone.
Answer NOT MET if inhibition at 1 µM is under 90%, and MET if it is 90% or more.

Input line: State whether the measured inhibition at 1 µM reaches 90%, counting equality as reaching it, for Clc1ccc(N2CCC3CNCC3CC2)cc1Cl (stereo not drawn) [Example 35]
Output line: MET

Input line: Could you please find out whether Cl.c1ccc2cc(C3CC4CNCC4C3)ccc2c1 (stereo not drawn) [Example 55, hydrochloride] has inhibition at 1 µM that meets 90% or exceeds it?
Output line: NOT MET

Input line: Decide: is the reported value of inhibition at 1 µM for CN1CC2CN(c3ccc4sccc4c3)CC2C1.Cl (stereo not drawn) [Example 15, hydrochloride] equal to or greater than 90%?
Output line: NOT MET

Input line: Hi team, for Cl.c1ccc2sc(C3CC4CNCC4C3)cc2c1 (stereo not drawn) [Example 50, hydrochloride] , is the recorded inhibition at 1 µM at or above 90%?
Output line: NOT MET

Input line: Check the entry Clc1ccc(N2CC3CNCC3C2)cc1Cl (stereo not drawn) [Example 16] : does inhibition at 1 µM equal or exceed 90%?
Output line: MET

Input line: Please tell me: is the molecule CN1CC2CN(c3ccc4ccccc4c3)CC2C1 (stereo not drawn) [Example 2] at or over 90% in terms of inhibition at 1 µM?
Output line: MET

Input line: Could you please find out whether CN1CC2CN(c3cccc4ccsc34)CC2C1.O=C(O)C(=O)O (stereo not drawn) [Example 11, oxalate] has inhibition at 1 µM that meets 90% or exceeds it?
Output line: NOT MET

Input line: Please indicate if the recorded inhibition at 1 µM for CN1CC2CN(c3cccc4ccccc34)CC2C1 (stereo not drawn) [Example 26, oxalate] meets or exceeds 90%.
Output line: NOT MET

Input line: Check if inhibition at 1 µM >= 90% (inclusive). Item: CN1CC2CN(c3ccc(Cl)c(Cl)c3)CC2C1 (stereo not drawn) [Example 17]
Output line: MET

====

Hi there, I'd appreciate the recorded IC50 for every entry that follows.
biological target: hSERT (5-HTT) in HEK293-hSERT cells (Homo sapiens); assay: 5-HTT reuptake activity assay (fluorescence neurotransmitter transporter uptake kit); conditions: serotonin reuptake inhibition
Structures can show the parent of a compound that is named as a salt.

Input line: Item Clc1ccc(N2CC3CNCC3C2)cc1Cl (centres unmarked) has what recorded IC50?
Output line: < 10 nM

Input line: Which IC50 is listed for Cc1cccc(N2CC3CN(C)CC3C2)c1C (centres unmarked) [Example 67, oxalate] ?
Output line: < 200 nM

Input line: Need IC50, item CN1CC2CCN(c3ccc4sccc4c3)C2C1 (centres unmarked) [Example 65, oxalate]
Output line: < 50 nM

Input line: Fill blank: measured IC50 of the compound O=C(O)/C=C\C(=O)O.c1cc2cc(N3CC4CNCC4C3)ccc2o1 (centres unmarked) [Example 21, maleate] is ____.
Output line: < 50 nM

Input line: Query: IC50; subject: CN1CC2C=C(c3cccc4ccccc34)CC2C1 (centres unmarked)
Output line: < 50 nM

====

Consider the following molecules; for each one, report its minimal effective dose.
test system: mice; experiment: Forced swimming test (FST) in mice; assay type: in vivo; settings: Mus musculus; po; FST; dose significantly reducing immobility time of mice; read-out: Effective dose
Expressed in mg/kg, but write only the number.

Input line: # input molecule: Fc1ccc2cc(N3CC4CNCC4C3)ccc2c1.O=C(O)/C=C\C(=O)O (stereo not shown) [Example 29] ; wanted: its minimal effective dose
Output line: 5

Input line: For the molecule shown here, CN1CC2CN(c3ccc4ccccc4c3F)CC2C1.O=C(O)/C=C\C(=O)O (stereo not shown) [Example 32] , give the reported minimal effective dose.
Output line: 20

Input line: Returns the measured minimal effective dose for the input molecule. Input: CN(C)CCCC1(c2ccc(F)cc2)OCc2cc(C#N)ccc21 (stereo not shown) [Citalopram, reference compound]
Output line: 20

Input line: Fill in the blank: the reported minimal effective dose of CN1CC2CN(c3ccc4cc(F)ccc4c3)CC2C1.O=C(O)/C=C\C(=O)O (stereo not shown) [Example 30] is ____.
Output line: 20
